test target: T1, IL-18 binding protein (IL-18BP) (UniProt O95998 31-194); also: unit not given here
T1 sequence (looked up): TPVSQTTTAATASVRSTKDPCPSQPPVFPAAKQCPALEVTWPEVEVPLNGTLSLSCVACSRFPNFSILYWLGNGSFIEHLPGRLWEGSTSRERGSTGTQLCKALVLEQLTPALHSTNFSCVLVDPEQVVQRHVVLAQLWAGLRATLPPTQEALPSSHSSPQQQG
assay remarks: cell-based or functional assay
reported metric: Activity, +100 nM BP, DF-5000003
Write the number on its own, no unit after it.

Below are worked cases with known answers.
IL-18 variant G3P, E6I, K53N, D54W, S55P, T63S, N91L, R104Q (ligand) YFPKLISKLSVIRNLNDQVLFIDQGNRPLFEDMTDSDMRDNAPRTIFIISMYNWPQPRGMAVSISVKSEKISTLSSENKIISFKEMNPPDLIKDTKSDIIFFQQSVPGHDNKMQFESSSYEGYFLASEKERDLFKLILKKEDELGDRSIMFTVQNED: 0.09
IL-18 variant G3S, E6G, D54V, S55K, T63S, N91Y, R104T (ligand) YFSKLGSKLSVIRNLNDQVLFIDQGNRPLFEDMTDSDMRDNAPRTIFIISMYKVKQPRGMAVSISVKSEKISTLSSENKIISFKEMNPPDYIKDTKSDIIFFQTSVPGHDNKMQFESSSYEGYFLASEKERDLFKLILKKEDELGDRSIMFTVQNED: 0.85
IL-18 variant G3Q, E6G, D54N, S55H, T63V, N91M, R104T (ligand) YFQKLGSKLSVIRNLNDQVLFIDQGNRPLFEDMTDSDMRDNAPRTIFIISMYKNHQPRGMAVVISVKSEKISTLSSENKIISFKEMNPPDMIKDTKSDIIFFQTSVPGHDNKMQFESSSYEGYFLASEKERDLFKLILKKEDELGDRSIMFTVQNED: 1.38
IL-18 variant G3L, E6Q, T63H, N91M, R104H (ligand) YFLKLQSKLSVIRNLNDQVLFIDQGNRPLFEDMTDSDMRDNAPRTIFIISMYKDSQPRGMAVHISVKSEKISTLSSENKIISFKEMNPPDMIKDTKSDIIFFQHSVPGHDNKMQFESSSYEGYFLASEKERDLFKLILKKEDELGDRSIMFTVQNED: 0.07

Which Activity, +100 nM BP, DF-5000003 is reported for this binder? IL-18 variant G3D, E6Q, R27S, K53R, D54A, S55R, T63S, N91Q (ligand) YFDKLQSKLSVIRNLNDQVLFIDQGNSPLFEDMTDSDMRDNAPRTIFIISMYRARQPRGMAVSISVKSEKISTLSSENKIISFKEMNPPDQIKDTKSDIIFFQRSVPGHDNKMQFESSSYEGYFLASEKERDLFKLILKKEDELGDRSIMFTVQNED
0.15

Likewise for IL-18 variant G3L, E6Q, T63S, N91L, R104T (ligand) YFLKLQSKLSVIRNLNDQVLFIDQGNRPLFEDMTDSDMRDNAPRTIFIISMYKDSQPRGMAVSISVKSEKISTLSSENKIISFKEMNPPDLIKDTKSDIIFFQTSVPGHDNKMQFESSSYEGYFLASEKERDLFKLILKKEDELGDRSIMFTVQNED ?
1.15

Likewise for IL-18 variant G3P, E6N, D54Y, T63S, N91S, R104Q (ligand) YFPKLNSKLSVIRNLNDQVLFIDQGNRPLFEDMTDSDMRDNAPRTIFIISMYKYSQPRGMAVSISVKSEKISTLSSENKIISFKEMNPPDSIKDTKSDIIFFQQSVPGHDNKMQFESSSYEGYFLASEKERDLFKLILKKEDELGDRSIMFTVQNED ?
0.1
